Target: Tubulin (Bos taurus) (UniProt Q6B856+Q862L2+Q862F3)
Assay: Displacement of [3H]colchicine from bovine brain tubulin at 40 uM after 90 mins by liquid scintillation counting in presence of 10 uM [3H]colchicine
RESULT TYPE: Activity

{"COMPOUND": "COc1cc([C@H]2C=CC[C@@H]3COC(=O)[C@H]32)cc(OC)c1OC (relative stereo)", "RESULT": "15500 cpm"}
{"COMPOUND": "COc1cc([C@H]2C=CC[C@@H]3C(=O)OC[C@@H]32)cc(OC)c1OC (relative stereo)", "RESULT": "11600 cpm"}
{"COMPOUND": "O=C1OC[C@H]2CC=C[C@H](c3ccccc3)[C@@H]12 (relative stereo)", "RESULT": "12300 cpm"}
{"COMPOUND": "O=C1OC[C@H]2CC=C[C@H](c3ccccc3)[C@H]12", "RESULT": "15600 cpm"}
{"COMPOUND": "O=C1OC[C@H]2[C@@H]1CC=C[C@@H]2c1ccccc1 (relative stereo)", "RESULT": "14800 cpm"}
{"COMPOUND": "O=C1OC[C@H]2[C@@H]1CC=C[C@@H]2c1ccc2c(c1)OCO2", "RESULT": "16700 cpm"}
{"COMPOUND": "O=C1OC[C@H]2CC=C[C@H](c3ccc4c(c3)OCO4)[C@H]12", "RESULT": "20100 cpm"}
{"COMPOUND": "O=C1OC[C@H]2CC=CC[C@@H]12", "RESULT": "16800 cpm"}
{"COMPOUND": "O=C1OC[C@@H]2[C@@H]1CC=C[C@@H]2c1ccc2c(c1)OCO2", "RESULT": "16700 cpm"}
{"COMPOUND": "O=C1OC[C@H]2CC=CC[C@H]12", "RESULT": "14900 cpm"}
{"COMPOUND": "O=C1OC[C@H]2CC=C[C@H](c3ccc4c(c3)OCO4)[C@@H]12", "RESULT": "17600 cpm"}

###

Biological target: Tubulin (Bos taurus) (UniProt Q6B856+Q862L2+Q862F3)
Experiment: Displacement of [3H]colchicine from bovine brain tubulin at 60 uM after 90 mins by liquid scintillation counting in presence of 10 uM [3H]colchicine

{"MOLECULE": "O=C1OC[C@H]2[C@@H]1CC=C[C@@H]2c1ccc2c(c1)OCO2", "Activity (cpm)": 17000}
{"MOLECULE": "O=C1OC[C@H]2CC=CC[C@@H]12", "Activity (cpm)": 15900}
{"MOLECULE": "COc1cc([C@H]2C=CC[C@@H]3C(=O)OC[C@@H]32)cc(OC)c1OC (relative stereo)", "Activity (cpm)": 18400}
{"MOLECULE": "O=C1OC[C@H]2CC=C[C@H](c3ccccc3)[C@H]12", "Activity (cpm)": 18500}
{"MOLECULE": "O=C1OC[C@H]2CC=CC[C@H]12", "Activity (cpm)": 15200}
{"MOLECULE": "O=C1OC[C@H]2[C@@H]1CC=C[C@@H]2c1ccccc1 (relative stereo)", "Activity (cpm)": 5380}
{"MOLECULE": "O=C1OC[C@H]2CC=C[C@H](c3ccccc3)[C@@H]12 (relative stereo)", "Activity (cpm)": 13900}
{"MOLECULE": "O=C1OC[C@H]2CC=C[C@H](c3ccc4c(c3)OCO4)[C@H]12", "Activity (cpm)": 18200}
{"MOLECULE": "COc1cc([C@H]2C=CC[C@@H]3COC(=O)[C@H]32)cc(OC)c1OC (relative stereo)", "Activity (cpm)": 14600}
{"MOLECULE": "O=C1OC[C@H]2CC=C[C@H](c3ccc4c(c3)OCO4)[C@@H]12", "Activity (cpm)": 17300}
{"MOLECULE": "O=C1OC[C@@H]2[C@@H]1CC=C[C@@H]2c1ccc2c(c1)OCO2", "Activity (cpm)": 15600}

###

Target: Tubulin (Bos taurus) (UniProt Q6B856+Q862L2+Q862F3)
Experiment: Displacement of [3H]colchicine from bovine brain tubulin at 100 uM after 90 mins by liquid scintillation counting in presence of 10 uM [3H]colchicine

{"COMPOUND": "O=C1OC[C@@H]2[C@@H]1CC=C[C@@H]2c1ccc2c(c1)OCO2", "MEASUREMENT TARGET": "Tubulin (Bos taurus) (UniProt Q6B856+Q862L2+Q862F3)", "UNIT NAME": "cpm", "Activity": 16700}
{"COMPOUND": "O=C1OC[C@H]2CC=C[C@H](c3ccccc3)[C@@H]12 (relative stereo)", "MEASUREMENT TARGET": "Tubulin (Bos taurus) (UniProt Q6B856+Q862L2+Q862F3)", "UNIT NAME": "cpm", "Activity": 13600}
{"COMPOUND": "O=C1OC[C@H]2CC=C[C@H](c3ccccc3)[C@H]12", "MEASUREMENT TARGET": "Tubulin (Bos taurus) (UniProt Q6B856+Q862L2+Q862F3)", "UNIT NAME": "cpm", "Activity": 15500}
{"COMPOUND": "COc1cc([C@H]2C=CC[C@@H]3C(=O)OC[C@@H]32)cc(OC)c1OC (relative stereo)", "MEASUREMENT TARGET": "Tubulin (Bos taurus) (UniProt Q6B856+Q862L2+Q862F3)", "UNIT NAME": "cpm", "Activity": 18200}
{"COMPOUND": "O=C1OC[C@H]2[C@@H]1CC=C[C@@H]2c1ccccc1 (relative stereo)", "MEASUREMENT TARGET": "Tubulin (Bos taurus) (UniProt Q6B856+Q862L2+Q862F3)", "UNIT NAME": "cpm", "Activity": 13100}

###

Molecular target: Tubulin (Bos taurus) (UniProt Q6B856+Q862L2+Q862F3)
Test: Displacement of [3H]colchicine from bovine brain tubulin at 10 uM after 90 mins by liquid scintillation counting in presence of 10 uM [3H]colchicine

{"COMPOUND": "O=C1OC[C@H]2CC=C[C@H](c3ccc4c(c3)OCO4)[C@H]12", "MEASUREMENT TARGET": "Tubulin (Bos taurus) (UniProt Q6B856+Q862L2+Q862F3)", "UNIT NAME": "cpm", "Activity": 16000}
{"COMPOUND": "O=C1OC[C@H]2CC=CC[C@H]12", "MEASUREMENT TARGET": "Tubulin (Bos taurus) (UniProt Q6B856+Q862L2+Q862F3)", "UNIT NAME": "cpm", "Activity": 15500}
{"COMPOUND": "O=C1OC[C@@H]2[C@@H]1CC=C[C@@H]2c1ccc2c(c1)OCO2", "MEASUREMENT TARGET": "Tubulin (Bos taurus) (UniProt Q6B856+Q862L2+Q862F3)", "UNIT NAME": "cpm", "Activity": 17400}
{"COMPOUND": "O=C1OC[C@H]2[C@@H]1CC=C[C@@H]2c1ccccc1 (relative stereo)", "MEASUREMENT TARGET": "Tubulin (Bos taurus) (UniProt Q6B856+Q862L2+Q862F3)", "UNIT NAME": "cpm", "Activity": 15800}
{"COMPOUND": "O=C1OC[C@H]2CC=C[C@H](c3ccccc3)[C@@H]12 (relative stereo)", "MEASUREMENT TARGET": "Tubulin (Bos taurus) (UniProt Q6B856+Q862L2+Q862F3)", "UNIT NAME": "cpm", "Activity": 1320}
{"COMPOUND": "COc1cc([C@H]2C=CC[C@@H]3COC(=O)[C@H]32)cc(OC)c1OC (relative stereo)", "MEASUREMENT TARGET": "Tubulin (Bos taurus) (UniProt Q6B856+Q862L2+Q862F3)", "UNIT NAME": "cpm", "Activity": 17000}
{"COMPOUND": "O=C1OC[C@H]2CC=C[C@H](c3ccc4c(c3)OCO4)[C@@H]12", "MEASUREMENT TARGET": "Tubulin (Bos taurus) (UniProt Q6B856+Q862L2+Q862F3)", "UNIT NAME": "cpm", "Activity": 17600}
{"COMPOUND": "O=C1OC[C@H]2CC=CC[C@@H]12", "MEASUREMENT TARGET": "Tubulin (Bos taurus) (UniProt Q6B856+Q862L2+Q862F3)", "UNIT NAME": "cpm", "Activity": 15800}
{"COMPOUND": "O=C1OC[C@H]2[C@@H]1CC=C[C@@H]2c1ccc2c(c1)OCO2", "MEASUREMENT TARGET": "Tubulin (Bos taurus) (UniProt Q6B856+Q862L2+Q862F3)", "UNIT NAME": "cpm", "Activity": 19000}
{"COMPOUND": "O=C1OC[C@H]2CC=C[C@H](c3ccccc3)[C@H]12", "MEASUREMENT TARGET": "Tubulin (Bos taurus) (UniProt Q6B856+Q862L2+Q862F3)", "UNIT NAME": "cpm", "Activity": 12200}
{"COMPOUND": "COc1cc([C@H]2C=CC[C@@H]3C(=O)OC[C@@H]32)cc(OC)c1OC (relative stereo)", "MEASUREMENT TARGET": "Tubulin (Bos taurus) (UniProt Q6B856+Q862L2+Q862F3)", "UNIT NAME": "cpm", "Activity": 18500}

Values were extracted from ChEMBL document CHEMBL3271938.
